Target: T1, human TNFR2 (human, UniProt P20333 23-461)
T1 construct: expressed on the surface of CHO cells; also called HuTNFR2; TNFRSF1B
T1 sequence: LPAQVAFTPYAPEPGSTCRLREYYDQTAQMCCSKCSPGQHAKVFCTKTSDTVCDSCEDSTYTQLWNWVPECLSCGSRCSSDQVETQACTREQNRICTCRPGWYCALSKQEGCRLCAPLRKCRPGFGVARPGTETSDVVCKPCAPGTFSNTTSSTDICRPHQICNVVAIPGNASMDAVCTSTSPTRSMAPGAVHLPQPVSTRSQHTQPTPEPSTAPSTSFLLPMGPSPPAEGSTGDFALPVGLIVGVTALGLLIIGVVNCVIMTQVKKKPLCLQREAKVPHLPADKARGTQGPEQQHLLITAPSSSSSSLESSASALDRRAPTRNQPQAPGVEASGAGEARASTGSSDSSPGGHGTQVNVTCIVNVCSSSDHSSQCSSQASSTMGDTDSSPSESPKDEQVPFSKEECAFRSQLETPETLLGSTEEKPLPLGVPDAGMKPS
Assay: binding to human TNFR2 CHO cells
quantity: binding result

>  <binder>
IgG 1926 (antibody, name in Kabat numbering, V domains shown, IgG) VH: QVQLVQSGAEVKKPGASVKVSCKVSGFSFPSSGVDWVRQAPGQGLEWLGVTKGQGSTHYNQKFQGRVTITKDTSKSTVYMELSSLRSEDTAVYYCASGEWDEGFVYWGQGTLVTVSS VL: DIQLTQSPSFLSASVGDRVTITCKASQNVGTAVAWYQQKPGKAPKLLIYAASTLQSGVPSRFSGSGSGTEFTLTISSLQPEDFATYYCQQYYSTPFGGGTKVEIKR

>  <quantity>
binding result

>  <meas-value>
no binding

$$$$
>  <binder>
IgG 1965 (antibody, name in Kabat numbering, V domains shown, IgG) VH: QVQLVQSGAEVKKPGASVKVSCKVSGFSFPSSGVDWVRQAPGQGLEWLGVTLGHGSTHYNQKFQGRVTITKDTSKSTVYMELSSLRSEDTAVYYCASGESTEGFVYWGQGTLVTVSS VL: DIQLTQSPSFLSASVGDRVTITCKASQNVGTAVAWYQQKPGKAPKLLIYAASTLQSGVPSRFSGSGSGTEFTLTISSLQPEDFATYYCQQYSSYPLTFGGGTKVEIKR

>  <quantity>
binding result

>  <meas-value>
no binding

$$$$
>  <binder>
IgG 2025 (antibody, name in Kabat numbering, V domains shown, IgG) VH: QVQLVQSGAEVKKPGASVKVSCKVSGFSFPSSGVDWVRQAPGQGLEWLGVTLGHGSTHYNQKFQGRVTITKDTSKSTVYMELSSLRSEDTAVYYCASGESTEGFVYWGQGTLVTVSS VL: DIQLTQSPSFLSASVGDRVTITCKASQNVGTAVAWYQQKPGKAPKLLIYAASTLQSGVPSRFSGSGSGTEFTLTISSLQPEDFATYYCLQKSSYPLTFGGGTKVEIKR

>  <quantity>
binding result

>  <meas-value>
no binding

$$$$

This collection of values is drawn from patent US20230406951A1.
